Please respond with reported growth at 10 µM for every item in the list.
- Tested on: K562
- method: Cytotoxicity against human K562 cells assessed as cell growth at 10 uM after 48 hrs by SRB assay relative to control
- Format: functional
- conditionContext: K562, 48 h, read-out: Activity
Lab book: enter the figure in %, no units written.

Reported growth at 10 µM ( `CSC1=Nc2c(c(C)c(C)n2CCCC(=O)O)C2=NC(=O)CN12` ) = 93

Reported growth at 10 µM ( `CSC1=Nc2c(c(C)c(-c3ccccc3)n2CCCN2CCN(C)CC2)C2=NC(=O)CN12` ) = 93

Reported growth at 10 µM ( CSC1=Nc2c(c(C)c(-c3ccccc3)n2CCCN2CCCCC2)C2=NC(=O)CC(C)N12 (stereo not given) ) = 12

Reported growth at 10 µM ( `CSC1=Nc2c(c(C)c(-c3ccccc3)n2CCCC(=O)O)C2=NC(=O)CN12` ) = 99

Reported growth at 10 µM ( `CSC1=Nc2c(c(C)c(C)n2CCCC(=O)NCCc2cnc[nH]2)C2=NC(=O)CN12` ) = 100

---

Please respond with reported growth at 10 µM for every item in the list.
- System: NCI-H460
- method: Cytotoxicity against human NCI-H460 cells assessed as cell growth at 10 uM after 48 hrs by SRB assay relative to control
- Format: functional
- conditionContext: NCI-H460, 48 h, read-out: Activity
Lab book: enter the figure in %, no units written.

Reported growth at 10 µM ( `CSC1=Nc2c(c(C)c(-c3ccccc3)n2CCCC(=O)O)C2=NC(=O)CN12` ) = 102

Reported growth at 10 µM ( `CSC1=Nc2c(c(C)c(C)n2CCCC(=O)NCCc2cnc[nH]2)C2=NC(=O)CN12` ) = 101

Reported growth at 10 µM ( CSC1=Nc2c(c(C)c(-c3ccccc3)n2CCCN2CCCCC2)C2=NC(=O)CC(C)N12 (stereo not drawn) ) = 38

Reported growth at 10 µM ( `CSC1=Nc2c(c(C)c(C)n2CCCC(=O)O)C2=NC(=O)CN12` ) = 105

Reported growth at 10 µM ( `CCOC(=O)CCCn1c(C)c(C)c2c1N=C(SC)N1CC(=O)N=C21` ) = 110

Reported growth at 10 µM ( `CSC1=Nc2c(c(C)c(-c3ccccc3)n2CCCN2CCN(C)CC2)C2=NC(=O)CN12` ) = 101

Reported growth at 10 µM ( COC(=O)C(Cc1cnc[nH]1)NC(=O)CCCn1c(C)c(C)c2c1N=C(SC)N1CC(=O)N=C21 (stereo not drawn) ) = 99

Reported growth at 10 µM ( `CCOC(=O)CCCn1c2c(c(C)c1-c1ccccc1)C1=NC(=O)CN1C(SC)=N2` ) = 94

---

- Tested on: A498
- method: Cytotoxicity against human A498 cells assessed as cell growth at 10 uM after 48 hrs by SRB assay relative to control
- Type: functional
- conditionContext: A498, 48 h, read-out: Activity
propertyMeasured: growth at 10 µM (%)
Lab book: enter the figure in %, no units written.

Reported growth at 10 µM ( `CSC1=Nc2c(c(C)c(-c3ccccc3)n2CCCN2CCN(C)CC2)C2=NC(=O)CN12` ) = 93

Reported growth at 10 µM ( COC(=O)C(Cc1cnc[nH]1)NC(=O)CCCn1c(C)c(C)c2c1N=C(SC)N1CC(=O)N=C21 (centres undefined) ) = 101

Reported growth at 10 µM ( `CSC1=Nc2c(c(C)c(C)n2CCCC(=O)NCCc2cnc[nH]2)C2=NC(=O)CN12` ) = 107

Reported growth at 10 µM ( `CCOC(=O)CCCn1c2c(c(C)c1-c1ccccc1)C1=NC(=O)CN1C(SC)=N2` ) = 118

Reported growth at 10 µM ( `CCOC(=O)CCCn1c(C)c(C)c2c1N=C(SC)N1CC(=O)N=C21` ) = 115

Reported growth at 10 µM ( `CSC1=Nc2c(c(C)c(-c3ccccc3)n2CCCC(=O)O)C2=NC(=O)CN12` ) = 109

Reported growth at 10 µM ( CSC1=Nc2c(c(C)c(-c3ccccc3)n2CCCN2CCCCC2)C2=NC(=O)CC(C)N12 (centres undefined) ) = 81

Reported growth at 10 µM ( `CSC1=Nc2c(c(C)c(-c3ccccc3)n2CCCCl)C2=NC(=O)CN12` ) = 47

Reported growth at 10 µM ( `CSC1=Nc2c(c(C)c(C)n2CCCC(=O)O)C2=NC(=O)CN12` ) = 86

---

Please respond with reported growth at 10 µM for every item in the list.
- Test system: LOX IMVI
- method: Cytotoxicity against human LOXIMVI cells assessed as cell growth at 10 uM after 48 hrs by SRB assay relative to control
- Format: functional
- conditionContext: read-out: Activity
Lab book: enter the figure in %, no units written.

Reported growth at 10 µM ( `CCOC(=O)CCCn1c(C)c(C)c2c1N=C(SC)N1CC(=O)N=C21` ) = 101

Reported growth at 10 µM ( `CSC1=Nc2c(c(C)c(C)n2CCCC(=O)O)C2=NC(=O)CN12` ) = 93

Reported growth at 10 µM ( CSC1=Nc2c(c(C)c(-c3ccccc3)n2CCCN2CCCCC2)C2=NC(=O)CC(C)N12 (stereo not given) ) = 42

Reported growth at 10 µM ( `CSC1=Nc2c(c(C)c(C)n2CCCC(=O)NCCc2cnc[nH]2)C2=NC(=O)CN12` ) = 102

Reported growth at 10 µM ( `CSC1=Nc2c(c(C)c(-c3ccccc3)n2CCCCl)C2=NC(=O)CN12` ) = 50

---

- Tested on: CCRF-CEM
- method: Cytotoxicity against human CCRF-CEM cells assessed as cell growth at 10 uM after 48 hrs by SRB assay relative to control
- Type: functional
- conditionContext: read-out: Activity
propertyMeasured: growth at 10 µM (%)
Lab book: enter the figure in %, no units written.

Given the compound CSC1=Nc2c(c(C)c(-c3ccccc3)n2CCCN2CCCCC2)C2=NC(=O)CC(C)N12 (centres undefined) and test system CCRF-CEM, the measured growth at 10 µM is 21

Given the compound `CCOC(=O)CCCn1c(C)c(C)c2c1N=C(SC)N1CC(=O)N=C21` and test system CCRF-CEM, the measured growth at 10 µM is 100

Given the compound `CSC1=Nc2c(c(C)c(C)n2CCCC(=O)O)C2=NC(=O)CN12` and test system CCRF-CEM, the measured growth at 10 µM is 105

Given the compound `CSC1=Nc2c(c(C)c(-c3ccccc3)n2CCCCl)C2=NC(=O)CN12` and test system CCRF-CEM, the measured growth at 10 µM is 52

Given the compound COC(=O)C(Cc1cnc[nH]1)NC(=O)CCCn1c(C)c(C)c2c1N=C(SC)N1CC(=O)N=C21 (centres undefined) and test system CCRF-CEM, the measured growth at 10 µM is 105

Given the compound `CSC1=Nc2c(c(C)c(C)n2CCCC(=O)NCCc2cnc[nH]2)C2=NC(=O)CN12` and test system CCRF-CEM, the measured growth at 10 µM is 104

Given the compound `CSC1=Nc2c(c(C)c(-c3ccccc3)n2CCCN2CCN(C)CC2)C2=NC(=O)CN12` and test system CCRF-CEM, the measured growth at 10 µM is 86

Given the compound `CCOC(=O)CCCn1c2c(c(C)c1-c1ccccc1)C1=NC(=O)CN1C(SC)=N2` and test system CCRF-CEM, the measured growth at 10 µM is 71

Given the compound `CSC1=Nc2c(c(C)c(-c3ccccc3)n2CCCC(=O)O)C2=NC(=O)CN12` and test system CCRF-CEM, the measured growth at 10 µM is 102

---

- Tested on: LOX IMVI
- method: Cytotoxicity against human LOXIMVI cells assessed as cell growth at 10 uM after 48 hrs by SRB assay relative to control
- Type: functional
- conditionContext: read-out: Activity
Please respond with reported growth at 10 µM for every item in the list.
Lab book: enter the figure in %, no units written.

Given the molecule `CCOC(=O)CCCn1c2c(c(C)c1-c1ccccc1)C1=NC(=O)CN1C(SC)=N2` and test system LOX IMVI, the measured growth at 10 µM is 93

Given the molecule `CSC1=Nc2c(c(C)c(-c3ccccc3)n2CCCC(=O)O)C2=NC(=O)CN12` and test system LOX IMVI, the measured growth at 10 µM is 77

Given the molecule `CSC1=Nc2c(c(C)c(-c3ccccc3)n2CCCN2CCN(C)CC2)C2=NC(=O)CN12` and test system LOX IMVI, the measured growth at 10 µM is 93

---

Please respond with reported growth at 10 µM for every item in the list.
- Tested on: SNB-75
- method: Cytotoxicity against human SNB75 cells assessed as cell growth at 10 uM after 48 hrs by SRB assay relative to control
- Assay type: functional
- conditionContext: SNB-75, 48 h, read-out: Activity
Lab book: enter the figure in %, no units written.

Reported growth at 10 µM ( COC(=O)C(Cc1cnc[nH]1)NC(=O)CCCn1c(C)c(C)c2c1N=C(SC)N1CC(=O)N=C21 (stereo not drawn) ) = 79

Reported growth at 10 µM ( `CSC1=Nc2c(c(C)c(C)n2CCCC(=O)NCCc2cnc[nH]2)C2=NC(=O)CN12` ) = 78

Reported growth at 10 µM ( `CCOC(=O)CCCn1c2c(c(C)c1-c1ccccc1)C1=NC(=O)CN1C(SC)=N2` ) = 80
